# Tested on: MS2 coat protein
# METHOD_NOTES: apparent Kd, MS2 coat protein; higher = weaker binding; RNA-MaP array; FMN 200 µM where present
# RECORDED_CONDITIONS: ligand present: flavin mononucleotide; designed as: OFF switch for flavin mononucleotide
Decision: apparent Kd compared against 50 nM; not below it gives y, below it gives n.

Please indicate if the recorded apparent Kd for "AGCACGAAAGUGCAACGAUGUACGAGAAGGACAUGAGGAUCACCCAUGUUGCUGUAACUGCUUAUGUAGGAUAUCGUACAUCGA" meets or exceeds 50 nM.
n

And for "UUUGUUUUGCAAGGAUAUGUUUAAUUUUAUUUUCCUUACACAUGAGGAUCACCCAUGUUAUUCUUACAGAAGGUGCGUAAUUUG" ?
y

And for "UUUAAUUUAAUUAAGAUCACAUGAGGAUCACCCAUGUAAUUAUAGGAUAUCAGCUCGAAUAGAGCUGAGAAGGAUAAUUACAUA" ?
y

And for "CUUUAUAAUACCUCAUGUACAUGAGGAUCACCCAUGUUAACUAAGGAUAUAUAUAAAUUAAUAAUGUAGAAGGUAGUACUAUUU" ?
n

And for "UGAGCCUCGUGAGGAUAUACAUGAGGAUCACCCAUGUAAUAAAGUGAACGGAGGUAACUCCGAAUGUAGAAGGCACGAGGCUCA" ?
y

And for "GGUGGACAUGAGGAUCACCCAUGUGAGGAUAUCGGCUGGUGCGUGGUGGCUGGCAUCUCGAGAAGGCACAUAGU" ?
y

And for "ACUAUACGAGGAUAUACUGACGGGCCUCAGGCGUCCAUGAGACAUGAGGAUCACCCAUGUAGAAGGCGUAUACU" ?
y

And for "UCGGCGCGAGGAUAUACGGUUGCUUGGUAGGGUCGUGGCGUACAUGAGGAUCACCCAUGUAGAAGGCGCGCCGC" ?
y

And for "UACCUGAGGCUUUGCUUUAGGCUUACAUGAGGAUCACCCAUGUAGGAUAUGGUAGGCAAAGCUUACCAGAAGGACAUGGAAAUU" ?
y

And for "AGUAGAUCAGGAUAUACGUAAAUGGUAAUUAUGUAACUUCAACAUGAGGAUCACCCAUGUAGAAGGGAUCUACA" ?
n

And for "GGCAGACAUGAGGAUCACCCAUGUCAGGAUAUGUGGCGAUCGUCGAUAGACGAUAGCCACAGAAGGGACAUGCC" ?
n

And for "UCCUCACAUGAGGAUCACCCAUGUCAGGAUAUCUGCGAGCAUUGGCCAAGGCCGCUCAGGAGAAGGGACGUCAA" ?
n

And for "GAUGAGAGAGGAUAUACAUGAGGAUCACCCAUGUAAUUUUCGGACAUGGAAGCCUGAUGUAGAAGGCUCGCAUG" ?
n

And for "CUGAGGUCAGGAUAUGCAUGGCGGGACUUGCGUCGUGGCGUGCAGAAGGGACAUGAGGAUCACCCAUGUGGAGU" ?
y

And for "ACUAGAUGAGGAUAUGCAUAUUUUCGUGUUCUUCUAGAUUAACAUGAGGAUCACCCAUGUAGAAGGCGUCAUUA" ?
n

And for "AAAUAACCUAGCAAAAUUUCCUAACAUGAGGAUCACCCAUGUAGAAGGCUGUCCUAAAAUAGGACAGAGGAUAUACGUGCUAGG" ?
n

And for "UUAAUUAACAAGAAGGCUUACAUGAGGAUCACCCAUGUUGUACAUGGAUAAAGAGGAUAUUGCUAAUAAUUAUUUAUCUUAAUU" ?
n

And for "GGUGCCAUGUAGAAGGCAGAUCUGAUUCAGAUCUGAGGAUAUACAUGAGGAUCACCCAUGUAAAGGCUCCGCACGAGAGUGCAA" ?
n
